FYI, the data here is from ChEMBL document CHEMBL4616671.

Target: Mitogen-activated protein kinase kinase kinase 14 (Homo sapiens, UniProt Q99558)
Sequence (Q99558 whole entry, the tested form may be a part): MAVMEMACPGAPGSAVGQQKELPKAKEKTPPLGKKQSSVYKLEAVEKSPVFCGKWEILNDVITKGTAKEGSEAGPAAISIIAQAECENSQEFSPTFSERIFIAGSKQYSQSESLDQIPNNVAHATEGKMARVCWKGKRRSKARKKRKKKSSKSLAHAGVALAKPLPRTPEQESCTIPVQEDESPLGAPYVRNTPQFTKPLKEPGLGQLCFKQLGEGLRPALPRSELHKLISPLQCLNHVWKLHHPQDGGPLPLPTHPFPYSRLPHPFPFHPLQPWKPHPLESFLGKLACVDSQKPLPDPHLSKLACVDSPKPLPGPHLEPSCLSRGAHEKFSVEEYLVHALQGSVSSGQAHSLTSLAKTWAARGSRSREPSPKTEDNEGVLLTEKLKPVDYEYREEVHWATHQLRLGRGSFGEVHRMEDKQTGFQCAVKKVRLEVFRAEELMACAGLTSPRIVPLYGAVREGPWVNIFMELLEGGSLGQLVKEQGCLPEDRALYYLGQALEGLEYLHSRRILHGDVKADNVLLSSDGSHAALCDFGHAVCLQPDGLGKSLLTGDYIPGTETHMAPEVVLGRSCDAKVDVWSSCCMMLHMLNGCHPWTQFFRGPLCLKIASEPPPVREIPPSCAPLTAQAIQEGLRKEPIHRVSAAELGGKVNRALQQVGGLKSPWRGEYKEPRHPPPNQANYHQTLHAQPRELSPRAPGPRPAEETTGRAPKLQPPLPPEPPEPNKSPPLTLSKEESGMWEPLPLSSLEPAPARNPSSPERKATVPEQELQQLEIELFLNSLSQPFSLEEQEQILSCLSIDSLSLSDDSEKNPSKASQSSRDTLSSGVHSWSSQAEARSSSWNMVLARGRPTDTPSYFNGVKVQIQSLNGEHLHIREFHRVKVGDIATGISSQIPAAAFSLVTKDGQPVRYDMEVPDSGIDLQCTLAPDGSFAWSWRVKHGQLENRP
Test: Inhibition of NIK (unknown origin)
Measurement Name: Ki
Give the figure together with its unit, number first.

Briefly, Ki measured for CC(O)(C#Cc1ccc2c(c1)N(c1nc(N)ncc1Cl)CC2)c1nccs1 (stereo unspecified) : 0.4 nM

---

Assay: Tmax in Sprague-Dawley rat at 10 mg/kg, po administered via gavage by LC-MS/MS analysis
Format: ADME, organism-based
Settings: in vivo
Measurement Name: Tmax
Please answer using a numeric value trailed by its unit.

Per the records, this molecule ( CC(O)(C#Cc1ccc(N2CCOCC2)c(Nc2ncnc3[nH]ccc23)c1)c1nccs1 (racemic) ) has Tmax equal to 50 min

---

Assay: Volume of distribution in Sprague-Dawley rat at 1 mg/kg, iv administered as single bolus dose by LC-MS/MS analysis
Type: ADME, organism-based
Conditions: in vivo
Measurement Name: Vd (L/kg)
Could you give me the number in L/kg? Just the number is fine.

Per the records, this molecule ( CC(O)(C#Cc1ccc(N2CCOCC2)c(Nc2ncnc3[nH]ccc23)c1)c1nccs1 (racemic) ) has Vd equal to 2.73

---

Target: Activated CDC42 kinase 1 (Homo sapiens, UniProt Q07912)
Sequence (Q07912 whole entry): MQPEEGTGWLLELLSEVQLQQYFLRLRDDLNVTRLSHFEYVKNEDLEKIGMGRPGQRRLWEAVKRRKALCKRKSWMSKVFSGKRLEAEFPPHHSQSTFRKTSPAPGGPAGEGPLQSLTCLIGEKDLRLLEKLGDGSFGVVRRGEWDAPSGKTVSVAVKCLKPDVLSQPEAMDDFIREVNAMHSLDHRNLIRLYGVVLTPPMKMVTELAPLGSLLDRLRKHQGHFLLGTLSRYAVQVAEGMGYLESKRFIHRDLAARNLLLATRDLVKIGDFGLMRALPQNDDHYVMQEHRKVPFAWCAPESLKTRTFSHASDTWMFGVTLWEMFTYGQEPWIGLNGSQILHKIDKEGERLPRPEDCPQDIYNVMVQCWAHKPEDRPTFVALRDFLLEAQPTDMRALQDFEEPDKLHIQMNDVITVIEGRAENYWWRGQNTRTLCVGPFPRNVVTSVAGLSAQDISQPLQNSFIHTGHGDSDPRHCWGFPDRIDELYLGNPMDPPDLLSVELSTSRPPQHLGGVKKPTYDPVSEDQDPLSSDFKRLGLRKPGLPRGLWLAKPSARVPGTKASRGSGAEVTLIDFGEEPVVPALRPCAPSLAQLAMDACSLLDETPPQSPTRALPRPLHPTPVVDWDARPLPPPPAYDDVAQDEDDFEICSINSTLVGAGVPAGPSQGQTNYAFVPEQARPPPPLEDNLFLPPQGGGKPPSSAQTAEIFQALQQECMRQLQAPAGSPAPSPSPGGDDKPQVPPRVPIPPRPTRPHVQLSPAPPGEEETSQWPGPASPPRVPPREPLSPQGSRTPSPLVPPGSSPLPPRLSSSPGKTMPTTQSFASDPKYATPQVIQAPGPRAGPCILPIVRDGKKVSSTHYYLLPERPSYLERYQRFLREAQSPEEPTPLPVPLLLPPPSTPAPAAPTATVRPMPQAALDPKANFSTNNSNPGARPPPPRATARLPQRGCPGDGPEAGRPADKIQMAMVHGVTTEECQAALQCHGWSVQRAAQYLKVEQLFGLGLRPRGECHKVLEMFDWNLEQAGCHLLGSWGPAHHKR
Assay: Inhibition of human ACK1 using [EAIYAAPFAKKK] as substrate in presence of [gamma33P]ATP by hotspot assay
Measurement Name: pIC50
Expect pIC50 as a plain number equal to -log10 of the molar concentration.

The reported value for CC(O)(C#Cc1ccc(N2CCOCC2)c(Nc2ncnc3[nH]ccc23)c1)c1nccs1 (racemic) in terms of pIC50 is 6.72

---

Assay: Elimination half life in dog liver microsomes incubated for 10 mins followed by potassium phosphate buffer addition and measured after 5 to 60 mins by LC-MS/MS analysis
Assay type: ADME, Canis lupus familiaris, Microsome
Conditions: read-out: beta t1/2
Measurement Name: half-life

Documented half-life of CC(O)(C#Cc1ccc(N2CCOCC2)c(Nc2ncnc3[nH]ccc23)c1)c1nccs1 (racemic) : 32.4 min

The measured half-life associated with CC(O)(C#Cc1ccc2c(c1)N(c1nc(N)ncc1Cl)CC2)c1nccs1 (configuration not stated) reads 7.22 min

---

Molecular target: Mitogen-activated protein kinase kinase kinase 14 (Homo sapiens, UniProt Q99558)
Test: Inhibition of human NIK using myelin basic protein as substrate in presence of [gamma33P]ATP by hotspot assay
Measurement Name: pIC50
Remember the convention: pIC50 equals -log10 of concentration in molar.

Data point: CC(O)(C#Cc1ccc(N2CCOCC2)c(Nc2ncnc3[nH]ccc23)c1)c1nccs1 (racemic) ; pIC50 = 8.01

---

Biological target: Mitogen-activated protein kinase kinase kinase 14 (Homo sapiens, UniProt Q99558)
Test: Inhibition of recombinant N-terminal GST-fused human NIK (319 to 947 residues) expressed in baculovirus expression system incubated for 120 mins in presence of ATP by ADP-glo based luminescence assay
Measurement Name: IC50
Your answer should be a number followed by the unit of measure.

| Compound | Endpoint Result |
| --- | --- |
| CCN1CCN(c2ccc(C#CC(C)(O)c3nccs3)cc2Nc2ncnc3[nH]ccc23)CC1 (centres undefined) | 34.5 nM |
| CC(O)(C#Cc1ccc(N2CCOCC2)c(Nc2ncnc3[nH]ccc23)c1)C1CCCC1 (centres undefined) | 2240 nM |
| CC(O)(C#Cc1ccc(N2CCOCC2)c(Nc2ccnc(N)n2)c1)c1nccs1 (centres undefined) | 11.4 nM |
| C[C@@](O)(C#Cc1ccc(N2CCOCC2)c(Nc2ncnc3[nH]ccc23)c1)c1nccs1 | 12 nM |
| CC(O)(C#Cc1ccc(N2CCOCC2)c(Nc2ncnc3[nH]ccc23)c1)c1nccs1 (racemic) | 9.87 nM |
| CN1CCC(Oc2ccc(C#CC(C)(O)c3nccs3)cc2Nc2ncnc3[nH]ccc23)CC1 (centres undefined) | 705 nM |
| CN(C)CCN(C)c1ccc(C#CC(C)(O)c2nccs2)cc1Nc1ncnc2[nH]ccc12 (centres undefined) | 484 nM |
| CC(=O)N1CCN(c2ccc(C#CC(C)(O)c3nccs3)cc2Nc2ncnc3[nH]ccc23)CC1 (centres undefined) | 17.8 nM |
| CC(O)(C#Cc1ccc(N2CCC(N3CCOCC3)CC2)c(Nc2ncnc3[nH]ccc23)c1)c1nccs1 (centres undefined) | 15.3 nM |
| CC(O)(C#Cc1ccc(N2CCOCC2)c(Nc2ncnc3[nH]ccc23)c1)c1cccs1 (centres undefined) | 50.4 nM |

GET /value?item= CC(O)(C#Cc1cccc(Nc2ncnc3[nH]ccc23)c1)c1nccs1 (centres undefined) &field=IC50 returns 1640 nM

Record summary for CC(O)(C#Cc1ccc(N2CCOCC2)c(Nc2c(F)cnc3[nH]ccc23)c1)c1nccs1 (centres undefined) : reported IC50 = 1380 nM

Reported IC50 for OC1(C#Cc2ccc(N3CCOCC3)c(Nc3ncnc4[nH]ccc34)c2)CCCCC1 was 1270 nM

---

Assay: Elimination half life in rat liver microsomes incubated for 10 mins followed by potassium phosphate buffer addition and measured after 5 to 60 mins by LC-MS/MS analysis
Assay type: ADME, Microsome
Details: read-out: beta t1/2
Measurement Name: half-life (min)
Please reply with the bare figure in min and do not write the unit itself.

half-life for CC(O)(C#Cc1ccc(N2CCOCC2)c(Nc2ncnc3[nH]ccc23)c1)c1nccs1 (racemic) is 30.8

Data point: CC(O)(C#Cc1ccc2c(c1)N(c1nc(N)ncc1Cl)CC2)c1nccs1 (configuration not stated) ; half-life = 9.82

---

Test: Clearance in Sprague-Dawley rat at 1 mg/kg, iv administered as single bolus dose by LC-MS/MS analysis
Format: ADME, organism-based
Details: in vivo
Measurement Name: clearance (mL/min/kg)
Numbers only here, please. The scale is mL/min/kg.

Lab note: CC(O)(C#Cc1ccc(N2CCOCC2)c(Nc2ncnc3[nH]ccc23)c1)c1nccs1 (racemic) gave clearance of 40.3

---

Test: AUC (0 to infinity) in Sprague-Dawley rat at 1 mg/kg, iv administered as single bolus dose by LC-MS/MS analysis
Assay type: ADME, organism-based
Design: dose 1 mg/kg, time infinity, route intravenous
Details: in vivo
Measurement Name: AUC(0-inf) (ng·h/mL)
Hi! Could you send only the number? It should be in ng·h/mL, unit omitted.

// field: AUC(0-inf); key: CC(O)(C#Cc1ccc(N2CCOCC2)c(Nc2ncnc3[nH]ccc23)c1)c1nccs1 (racemic) ; value = 419

---

Assay: Intrinsic hepatic clearance in dog
Assay type: ADME, Canis lupus familiaris
Conditions: in vivo
Measurement Name: CLH (mL/min/kg)
Form entry: value (mL/min/kg) — number only.

| Compound | CLH [mL/min/kg] |
| --- | --- |
| CC(O)(C#Cc1ccc(N2CCOCC2)c(Nc2ncnc3[nH]ccc23)c1)c1nccs1 (racemic) | 62.4 |

Now look at this one.
The compound CC(O)(C#Cc1ccc2c(c1)N(c1nc(N)ncc1Cl)CC2)c1nccs1 (configuration not stated) showed CLH equal to 276

---

Target: Mitogen-activated protein kinase kinase kinase 14 (Homo sapiens)
Test: Inhibition of recombinant N-terminal GST-fused human NIK (319 to 947 residues) expressed in baculovirus expression system incubated for 120 mins in presence of ATP by ADP-glo based luminescence assay
Here, each record is paired with measured IC50 data.

IC50 reading for OC1(C#Cc2ccc(N3CCOCC3)c(Nc3ncnc4[nH]ccc34)c2)CCCC1 : 645 nM

# IC50 of CC(O)(C#Cc1ccc(N2CCOCC2)c(Nc2ccnc3[nH]ccc23)c1)c1nccs1 (stereo not given) = 6.59 nM

So for COCCN(C)c1ccc(C#CC(C)(O)c2nccs2)cc1Nc1ncnc2[nH]ccc12 (stereo not given) , the logged IC50 turned out to be 72.4 nM

Memo: CC(O)(C#Cc1ccc(N2CCNCC2)c(Nc2ncnc3[nH]ccc23)c1)c1nccs1 (stereo not given) , reported IC50: 47.9 nM

// IC50 lookup, molecule = CC(O)(C#Cc1ccc2c(c1)N(c1nc(N)ncc1Cl)CC2)c1nccs1 (stereo not given) , result: 4.7 nM

IC50 reported for this molecule CC(O)(C#Cc1ccc(OC2CCOCC2)c(Nc2ncnc3[nH]ccc23)c1)c1nccs1 (stereo not given) : 112 nM

---

Experiment: Cmax in Sprague-Dawley rat at 10 mg/kg, po administered via gavage measured at 0.833 hrs by LC-MS/MS analysis
Assay type: ADME, organism-based
Design: dose 10 mg/kg, route oral
Conditions: in vivo
Measurement Name: Cmax (µg/mL)
Give the quantity in µg/mL, number only.

Entry under test: CC(O)(C#Cc1ccc(N2CCOCC2)c(Nc2ncnc3[nH]ccc23)c1)c1nccs1 (racemic) . Its Cmax was 0.772

---

Assay: Half life in Sprague-Dawley rat at 1 mg/kg, iv administered as single bolus dose by LC-MS/MS analysis
Format: ADME, organism-based
Settings: in vivo
Measurement Name: half-life (min)
Write it as a number; the unit min goes unstated.

Value of measured half-life for the entry CC(O)(C#Cc1ccc(N2CCOCC2)c(Nc2ncnc3[nH]ccc23)c1)c1nccs1 (racemic) : 56.6

---

Test system: J774
Test: Antiinflammatory activity in mouse J774 cells assessed as inhibition of LPS-induced NO production at 1 uM preincubated for 2 hrs followed by LPS stimulation and measured after 22 hrs by Griess reagent based assay relative to control
Format: functional
# key: entry, value: inhibition at 1 µM
API: value field is a number in %; no unit string.

| Compound | inhibition at 1 µM (%) |
| --- | --- |
| C[C@H]1CN(c2ccc(C#CC(C)(O)c3nccs3)cc2Nc2ncnc3[nH]ccc23)CCN1 (stereo not given in full) | 62.9 |

Consider the additional compound presented here.
inhibition at 1 µM for CCN1CCN(c2ccc(C#CC(C)(O)c3nccs3)cc2Nc2ncnc3[nH]ccc23)CC1 (stereo not given) is 67.4
